The reader will find reported percent reduction in ELISA signal values listed item by item below.
# measurement_target: Antibody No. 245.1
# procedure_details: peptide blocking ELISA on plate-bound VISTA, peptide 2 ug/mL
Your answer is read as %, so omit the unit and give the number.

> print(dat)
                                     binder                       assay.metric  result
1  QNVTLTCRLLGPVDK (synthetic overlapping peptide from human VISTA) [Spiked Peptide 4 (QNVTLTCRLLGPVDK)]  percent reduction in ELISA signal       9

The record that follows has no percent reduction in ELISA signal shown yet.
Ask: Need percent reduction in ELISA signal, item GLESASDHHGNFSIT (synthetic overlapping peptide from human VISTA) [Spiked Peptide 18 (GLESASDHHGNFSIT)]
Result: 3
